This collection of values is drawn from ChEMBL document CHEMBL1125880.

assayed.system: GABA-A receptor; anion channel
measurement.description: inhibition of [3H]flunitrazepam binding to GABA-A central Benzodiazepine receptor of bovine cerebral cortex membrane
Assay type: tissue-based, Bos taurus
The following molecules are listed with their measured pIC50 values.
Remember the convention: pIC50 equals -log10 of concentration in molar.

// worked examples, pIC50 included
- smiles.notation: "CC(C)C1=Cc2cccc(-c3ccccc3)c2C(=O)C1=O"
  measured.metric: "pIC50"
  numeric.value: 4.70
- smiles.notation: "O=C1C=Cc2ccc3c(c2C1=O)CCCC3"
  measured.metric: "pIC50"
  numeric.value: 4.70

Lab note: next molecule to report on.
Notebook: CC1=CCCc2c1ccc1c2C(=O)C(=O)C(C(C)C)=C1 , pIC50 read as 5.36

----------
assayed.system: GABA-A receptor; anion channel
measurement.description: Potency related to miltirone (1) at the central benzodiazepine receptor was determined using [3H]flunitrazepam as radioligand
Assay type: protein-complex assay
pIC50: −log10 of the molar value.
# binarize pIC50: threshold 6 inclusive, high side class 1, low side class 0

Observe how each entry below is paired with its result.
- compound: "CC1=Cc2ccc3c(c2C(=O)C1=O)CCCC3(C)C"
  assigned.category: "class 1"
- compound: "CC(C)C1=Cc2ccc3c(c2C(=O)C1=O)CCCC3(C)O (configuration not stated)"
  assigned.category: "class 0"
- compound: "CCc1cccc2c1C(=O)C(=O)C(C(C)C)=C2"
  assigned.category: "class 0"

Hello, I need to know if CC(C)C1=Cc2ccccc2C(=O)C1=O has measured pIC50 not below 6. Thanks!
class 0

Hello, I need to know if CC1(C)CCCc2c1ccc1c2C(=O)C(=O)C=C1 has measured pIC50 not below 6. Thanks!
class 0

Hello, I need to know if CC(C)C1=Cc2ccc3c(c2C(=O)C1=O)CCCC(=O)N3 has measured pIC50 not below 6. Thanks!
class 1

----------
assayed.system: GABA-A receptor; anion channel
measurement.description: Potency related to miltirone (1) at the central benzodiazepine receptor was determined using [3H]flunitrazepam as radioligand
Type: protein-complex assay
The following compounds are listed with their measured IC50 values.
Give the number; µM is assumed, so skip it.

Notebook: CC(C)C1=Cc2cccc(C(=O)O)c2C(=O)C1=O , IC50 read as 4.3

Notebook: CC(C)C1=Cc2ccc3c(c2C(=O)C1=O)CC[C@H](O)[C@]3(C)O , IC50 read as 15

Notebook: CC(C)C1=Cc2ncc3c(c2C(=O)C1=O)CCCC3 , IC50 read as 9.1

Notebook: CC(C)C1=Cc2ccc3c(c2C(=O)C1=O)CCCC3=O , IC50 read as 0.56

Notebook: CC(C)C1=Cc2ccc3c(c2C(=O)C1=O)CCCC3(C)C , IC50 read as 0.3

----------
The following compounds are listed with their measured IC50 values.
assayed.system: GABA-A receptor; anion channel
measurement.description: Potency related to miltirone (1) at the central benzodiazepine receptor was determined using [3H]flunitrazepam as radioligand
Format: protein-complex assay
Give the number; nM is assumed, so skip it.

- compound: "CC(C)C1=Cc2cc3c4c(c2C(=O)C1=O)CCCC4CC3 (stereo unspecified)"
  numeric.value: 50
- compound: "CC(C)C1=Cc2ccc3c(c2C(=O)C1=O)CC[C@@H](O)[C@]3(C)O"
  numeric.value: 17000
- compound: "CC(C)C1=Cc2ccc3c(c2C(=O)C1=O)CCCCC3"
  numeric.value: 230

Entry CC(C)C1=Cc2ccc3c(c2C(=O)C1=O)CCCCCC3 ; assay system GABA-A receptor; anion channel; IC50 recorded at 310
